B1: TPR 5TU (parent)
chain: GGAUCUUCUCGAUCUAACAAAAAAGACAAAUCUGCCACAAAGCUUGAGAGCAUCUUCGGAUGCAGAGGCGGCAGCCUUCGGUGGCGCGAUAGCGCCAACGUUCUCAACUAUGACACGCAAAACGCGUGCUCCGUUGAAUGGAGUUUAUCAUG

- Variants of: B1
- experimental.details: polymerase ribozyme fitness, log enrichment relative to wild type (log ratio); higher = more active; in vitro selection for triplet polymerase activity
This sample holds only a part of the variants without activity.
Measured polymerase ribozyme fitness (log ratio) accompanies every entry in the list below.
Could you keep your reply to the number by itself?

As a guide, the following entries are already answered.
A19G A89C U134G = -3.68
G81A A107U = -3.89
A12G C85U = 0.000103
U56G C85A = -2.05
A147U = 1.1

Prompt line: For the variant A3C A22U A49U A52G U56A , what polymerase ribozyme fitness (log ratio) is on record?
Response line: -3.02

Prompt line: Subsequent entry: G62A U82A
Response line: -0.432

Prompt line: Subsequent entry: U31A C93U
Response line: 0.0654

Prompt line: Subsequent entry: A40U U56A
Response line: -0.0589

Prompt line: Subsequent entry: U56A G84U
Response line: -1.11

Sourced from the RNAGym collection of RNA variant scans (doi:10.1073/pnas.2313332121)
